Assay target: T1, hIL-11Rα (Homo sapiens, UniProt Q14626)
T1 sequence (Q14626 23-422): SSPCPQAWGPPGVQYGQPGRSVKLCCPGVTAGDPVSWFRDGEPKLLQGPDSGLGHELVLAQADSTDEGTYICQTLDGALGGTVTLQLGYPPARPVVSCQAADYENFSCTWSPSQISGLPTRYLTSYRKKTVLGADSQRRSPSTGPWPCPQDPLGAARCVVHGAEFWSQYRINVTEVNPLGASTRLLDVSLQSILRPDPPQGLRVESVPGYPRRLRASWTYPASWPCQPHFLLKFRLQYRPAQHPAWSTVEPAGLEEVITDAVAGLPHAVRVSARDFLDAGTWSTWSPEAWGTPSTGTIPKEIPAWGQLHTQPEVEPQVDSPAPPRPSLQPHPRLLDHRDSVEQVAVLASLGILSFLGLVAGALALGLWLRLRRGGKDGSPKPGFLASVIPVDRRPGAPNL
Protocol notes: Kinetic binding analysis by biolayer interferometry (protein G biosensors, Octet RED96e)
Measurement name: kd

Task item: Give reported kd value for mAb7: anti-IL-11Rα antibody, human IgG4 (S228P), kappa; VH SEQ ID NO: 205, VL SEQ ID NO: 206 (antibody, V domains shown, human IgG4 S228P and kappa constant regions; mAb7 VH Chain; mAb7 VL Chain) VH: EVQLLESGGGLVQPGGSLRLSCAASGFTFSNYAMSWVRQAPGKGLEWVSSIVPYGDLTQYADSVKGRFTISRDNSKNTLYLQMNSLRAEDTAVYYCAKGPGWGSFDLWGRGTLVTVSS VL: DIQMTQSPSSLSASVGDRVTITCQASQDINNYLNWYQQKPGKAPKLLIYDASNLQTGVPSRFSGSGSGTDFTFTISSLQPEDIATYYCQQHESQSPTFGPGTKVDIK
Reply: <1e-07 s⁻¹
